- test_system: Cav1.3 L-type Ca channels (Rattus norvegicus, UniProt P27732)
- Construct: expressed in transfected cells; host or cells: HEK293
- Sequence (P27732 whole entry): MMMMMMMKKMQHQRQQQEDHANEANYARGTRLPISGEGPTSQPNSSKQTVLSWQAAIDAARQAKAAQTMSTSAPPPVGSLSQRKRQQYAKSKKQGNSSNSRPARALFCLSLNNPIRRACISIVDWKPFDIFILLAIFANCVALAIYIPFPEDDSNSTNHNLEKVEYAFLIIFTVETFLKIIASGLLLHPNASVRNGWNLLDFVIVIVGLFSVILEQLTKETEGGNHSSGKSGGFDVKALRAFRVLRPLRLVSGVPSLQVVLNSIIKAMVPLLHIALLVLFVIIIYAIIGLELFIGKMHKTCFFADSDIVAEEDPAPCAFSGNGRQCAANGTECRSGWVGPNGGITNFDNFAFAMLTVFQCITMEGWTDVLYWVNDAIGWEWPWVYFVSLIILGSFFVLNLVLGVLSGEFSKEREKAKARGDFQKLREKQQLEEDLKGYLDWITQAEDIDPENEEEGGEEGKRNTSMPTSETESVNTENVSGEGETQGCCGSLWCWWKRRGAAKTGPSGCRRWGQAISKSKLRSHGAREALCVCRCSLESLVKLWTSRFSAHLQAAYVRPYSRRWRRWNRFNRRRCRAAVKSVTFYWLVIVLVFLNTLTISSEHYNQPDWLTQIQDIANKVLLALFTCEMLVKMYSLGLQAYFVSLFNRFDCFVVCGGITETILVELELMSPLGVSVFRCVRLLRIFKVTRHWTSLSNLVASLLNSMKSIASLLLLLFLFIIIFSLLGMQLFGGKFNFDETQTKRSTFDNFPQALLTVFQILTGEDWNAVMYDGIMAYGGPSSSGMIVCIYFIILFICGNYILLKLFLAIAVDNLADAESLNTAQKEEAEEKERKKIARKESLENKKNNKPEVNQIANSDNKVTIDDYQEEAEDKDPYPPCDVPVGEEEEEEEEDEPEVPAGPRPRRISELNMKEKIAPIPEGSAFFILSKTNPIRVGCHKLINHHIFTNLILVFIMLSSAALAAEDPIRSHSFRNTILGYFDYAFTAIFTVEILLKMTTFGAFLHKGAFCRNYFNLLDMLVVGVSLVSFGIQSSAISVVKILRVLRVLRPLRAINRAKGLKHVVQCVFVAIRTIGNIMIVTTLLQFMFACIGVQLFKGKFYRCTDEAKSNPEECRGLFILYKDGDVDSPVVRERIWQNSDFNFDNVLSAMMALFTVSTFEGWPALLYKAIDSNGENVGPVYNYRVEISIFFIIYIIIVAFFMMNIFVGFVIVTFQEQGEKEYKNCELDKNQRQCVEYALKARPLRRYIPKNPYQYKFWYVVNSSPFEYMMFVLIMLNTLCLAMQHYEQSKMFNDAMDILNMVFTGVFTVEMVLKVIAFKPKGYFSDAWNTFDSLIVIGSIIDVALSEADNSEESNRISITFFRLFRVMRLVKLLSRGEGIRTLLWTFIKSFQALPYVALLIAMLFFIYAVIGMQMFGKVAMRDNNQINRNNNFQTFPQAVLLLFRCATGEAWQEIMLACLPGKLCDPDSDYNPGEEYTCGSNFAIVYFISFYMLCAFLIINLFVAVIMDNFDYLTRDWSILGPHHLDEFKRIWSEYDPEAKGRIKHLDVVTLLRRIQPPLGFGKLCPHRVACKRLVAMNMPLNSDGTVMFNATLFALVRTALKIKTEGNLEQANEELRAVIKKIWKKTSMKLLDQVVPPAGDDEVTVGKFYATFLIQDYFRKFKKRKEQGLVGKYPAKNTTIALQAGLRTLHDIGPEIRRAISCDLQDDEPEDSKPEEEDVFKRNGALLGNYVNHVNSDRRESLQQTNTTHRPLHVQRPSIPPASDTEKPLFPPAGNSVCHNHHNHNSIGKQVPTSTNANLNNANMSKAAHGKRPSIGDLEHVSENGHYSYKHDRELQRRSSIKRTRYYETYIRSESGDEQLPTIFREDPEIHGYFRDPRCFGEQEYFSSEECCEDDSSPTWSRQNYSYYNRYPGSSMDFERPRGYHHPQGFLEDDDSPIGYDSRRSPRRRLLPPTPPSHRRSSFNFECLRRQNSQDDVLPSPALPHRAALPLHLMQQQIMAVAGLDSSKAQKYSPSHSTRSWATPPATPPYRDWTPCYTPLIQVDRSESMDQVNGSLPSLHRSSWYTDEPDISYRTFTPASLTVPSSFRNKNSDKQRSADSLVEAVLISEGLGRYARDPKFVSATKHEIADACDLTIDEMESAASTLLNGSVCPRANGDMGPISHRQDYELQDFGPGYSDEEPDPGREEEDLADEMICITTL
- Sequence (P54284 whole entry partner): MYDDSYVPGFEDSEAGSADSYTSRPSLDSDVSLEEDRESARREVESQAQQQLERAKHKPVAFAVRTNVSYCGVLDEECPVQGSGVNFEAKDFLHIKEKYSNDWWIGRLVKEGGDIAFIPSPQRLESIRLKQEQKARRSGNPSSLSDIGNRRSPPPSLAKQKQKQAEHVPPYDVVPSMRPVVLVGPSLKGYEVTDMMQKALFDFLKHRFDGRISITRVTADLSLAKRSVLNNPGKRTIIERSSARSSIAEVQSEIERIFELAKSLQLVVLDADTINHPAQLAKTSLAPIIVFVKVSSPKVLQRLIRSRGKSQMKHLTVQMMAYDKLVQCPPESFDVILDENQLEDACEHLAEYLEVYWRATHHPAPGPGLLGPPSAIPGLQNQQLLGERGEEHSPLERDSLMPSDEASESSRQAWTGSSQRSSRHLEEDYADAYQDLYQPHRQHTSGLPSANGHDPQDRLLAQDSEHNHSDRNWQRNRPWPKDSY
- Sequence (P54289 25-956 partner limits assumed): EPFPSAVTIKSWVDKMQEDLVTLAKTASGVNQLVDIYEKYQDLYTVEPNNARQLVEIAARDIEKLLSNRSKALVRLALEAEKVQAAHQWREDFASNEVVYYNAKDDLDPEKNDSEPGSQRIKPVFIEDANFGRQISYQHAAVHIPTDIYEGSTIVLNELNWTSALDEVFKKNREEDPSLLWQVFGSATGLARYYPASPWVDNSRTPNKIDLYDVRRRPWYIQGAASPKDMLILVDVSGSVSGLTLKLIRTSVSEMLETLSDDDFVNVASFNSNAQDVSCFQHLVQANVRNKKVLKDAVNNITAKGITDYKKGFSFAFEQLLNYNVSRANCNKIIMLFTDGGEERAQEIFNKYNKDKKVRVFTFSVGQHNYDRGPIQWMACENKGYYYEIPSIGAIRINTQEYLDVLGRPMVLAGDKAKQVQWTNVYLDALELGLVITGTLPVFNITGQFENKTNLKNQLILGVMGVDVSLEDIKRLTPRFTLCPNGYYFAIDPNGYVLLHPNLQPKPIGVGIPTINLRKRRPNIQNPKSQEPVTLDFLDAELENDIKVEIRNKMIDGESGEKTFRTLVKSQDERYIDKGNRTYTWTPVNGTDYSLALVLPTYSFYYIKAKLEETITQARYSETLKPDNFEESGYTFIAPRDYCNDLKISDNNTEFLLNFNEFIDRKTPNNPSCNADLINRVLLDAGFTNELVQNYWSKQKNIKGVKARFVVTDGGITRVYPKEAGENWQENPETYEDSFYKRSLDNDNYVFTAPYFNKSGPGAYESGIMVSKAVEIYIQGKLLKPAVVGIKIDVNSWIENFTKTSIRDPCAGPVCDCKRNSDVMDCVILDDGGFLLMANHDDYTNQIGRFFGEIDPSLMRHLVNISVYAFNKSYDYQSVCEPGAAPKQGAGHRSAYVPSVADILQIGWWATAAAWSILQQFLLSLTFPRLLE
- Sequence (P54289 957-1103 partner limits assumed): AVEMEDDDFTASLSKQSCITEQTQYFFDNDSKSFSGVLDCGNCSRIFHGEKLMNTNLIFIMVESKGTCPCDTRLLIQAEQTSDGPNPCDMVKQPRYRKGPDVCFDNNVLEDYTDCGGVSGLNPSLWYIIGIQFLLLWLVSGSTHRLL
- assay_comment: FLIPR Fluo-8 calcium assay, Cav1.3 channel inhibition in HEK293 cells
- Type: cell-based
- conditions: first library; FLIPR, HEK293; value (±SD); read-out: IC50 (μM) CaV1.3
Kindly supply the reported IC50 values for the records listed here.
Numbers only, in µM.

In [3]: df
Out[3]:
                                 cpd_smiles                               test_system  experimental_endpoint  measured
0  O=C1CC(=O)N(CCCc2ccccc2)C(=O)N1CCCCc1ccccc1  Cav1.3 L-type Ca channels (Rattus norvegicus, UniProt P27732)                   IC50       1.3
1  CCCCCCCCN1C(=O)CC(=O)N(CCc2ccc3ccccc3c2)C1=O  Cav1.3 L-type Ca channels (Rattus norvegicus, UniProt P27732)                   IC50       1.9
2  O=C1CC(=O)N(CCc2ccc([N+](=O)[O-])cc2)C(=O)N1CCc1ccc(Cl)cc1  Cav1.3 L-type Ca channels (Rattus norvegicus, UniProt P27732)                   IC50       3.4
3  O=C1CC(=O)N(C2Cc3ccccc3C2)C(=O)N1CCCCc1ccccc1  Cav1.3 L-type Ca channels (Rattus norvegicus, UniProt P27732)                   IC50       3.3
4  O=C1CC(=O)N(CCc2ccc(F)cc2)C(=O)N1CCCc1ccccc1  Cav1.3 L-type Ca channels (Rattus norvegicus, UniProt P27732)                   IC50       1.3

Could you now consider this next compound?
Reported IC50, compound CCCCCCCCN1C(=O)CC(=O)N(CCCc2ccccc2)C1=O : ____
1.1

====

- test_system: Cav1.3 L-type Ca channels (Rattus norvegicus)
- Construct: expressed in transfected cells; host or cells: HEK293
- assay_comment: FLIPR Fluo-8 calcium assay, Cav1.3 channel inhibition in HEK293 cells
- Format: cell-based
- conditions: IC50 (μM) Cav1.3, third library; FLIPR, HEK293; value (±SD)
Kindly supply the reported IC50 values for the records listed here.
Give bare numbers, in µM.

State recorded IC50 for all listed compounds.
1. O=C1CC(=O)N(C2CCCCCC2)C(=O)N1CCc1cccc(Cl)c1
2. CCC(C)N1C(=O)CC(=O)N(CCc2cccc(Cl)c2)C1=O (centres unmarked)

[2.5, 1.9]

====

- test_system: Cav1.3 L-type Ca channels (Rattus norvegicus)
- Construct: expressed in transfected cells; host or cells: HEK293
- assay_comment: FLIPR Fluo-8 calcium assay, Cav1.3 channel inhibition in HEK293 cells
- Type: cell-based
- conditions: Table 4; 12 concentration points (0.1 nM~100 μM) in duplicate; read-out: IC50 (μM) Cav1.3
experimental_endpoint: IC50 (µM)
Give bare numbers, in µM.

>>> df
                                   compound  measured
0  O=C1CC(=O)N(C2CC3CCC2C3)C(=O)N1CCc1ccc(Cl)cc1 (racemic)       0.6

Could you now consider this next compound?
Reported IC50, compound O=C1CC(=O)N([C@@H]2C[C@@H]3CC[C@H]2C3)C(=O)N1CCc1cccc(Cl)c1 (racemic) : ____
0.8
